Test system: MDA-MB-435
Assay: NCI tumour cell line growth inhibition, 48 h
The source made the active and inactive calls. No stated cut-off is given here; in the data, active = GI50 up to about 1.1 µM and inactive = higher.
metric: GI50

compound: O=C1c2ccccc2C(=O)[C@@]23O[C@@]12C1(Oc2cccc4cccc(c24)O1)[C@@H]1O[C@@H]1[C@@H]3O
recorded.value: 17.2 µM (inactive)
//
compound: COc1cc([C@@H]2C3C(=O)c4ccccc4C3[C@@H](c3cc(OC)c(OC)c(OC)c3)C23Cc2ccccc2C3=O)cc(OC)c1OC (stereo partly drawn)
recorded.value: > 100 µM (inactive)
//
compound: Cc1ccc(Nc2nc3c(=O)n(C)c(=O)n(C)c3nc2Nc2ccc(C)cc2)cc1
recorded.value: 12.1 µM (inactive)

----------
Test system: CAKI-1
Assay: NCI tumour cell line growth inhibition, 48 h
The source made the active and inactive calls. No stated cut-off is given here; in the data, active = GI50 up to about 1.1 µM and inactive = higher.
metric: GI50

compound: COc1ccccc1/C=C/C1=NN(c2cccc(S(=O)(=O)O)c2)C2(C1)SCC(=O)N2c1nc2ccccc2s1 (stereo not given)
subject.of.test: CAKI-1
recorded.value: > 100 µM (inactive)

compound: C=CCN1C(=O)C=C(c2ccccc2)n2ncc3cccc1c32
subject.of.test: CAKI-1
recorded.value: > 100 µM (inactive)

compound: COc1cc([C@H]2CC(=O)C[C@@H](c3cc(OC)c(OC)c(OC)c3)C23C(=O)c2ccccc2C3=O)cc(OC)c1OC
subject.of.test: CAKI-1
recorded.value: > 100 µM (inactive)

compound: N#CC(C(=O)/C(=N/Nc1nc(S)nn1N)C(C#N)c1ccccc1)c1ccccc1 (stereo not given)
subject.of.test: CAKI-1
recorded.value: > 100 µM (inactive)

compound: COc1nc(-c2c[nH]c3ccccc23)cnc1N
subject.of.test: CAKI-1
recorded.value: 24.6 µM (inactive)

----------
Test system: OVCAR-3
Assay: NCI tumour cell line growth inhibition, 48 h
Calls of active or inactive are those of the source. Cut-off read from the data, not from the text of the source: active = GI50 up to about 1.1 µM and inactive = higher.
Classes used: active, inactive

molecule: CC1Oc2c(c(=O)oc3ccccc23)[C@@]1(C)CC1C[C@H](C)C(=O)O1 (stereo partly drawn)
assigned.class: inactive
--
molecule: CCOP(=O)(OCC)C(C)(CC)NC(=O)C(C(F)(F)F)C(F)(F)F (stereo not drawn)
assigned.class: inactive
--
molecule: Nc1nc(N)c2ncn(Cc3c(Cl)cccc3Cl)c2n1
assigned.class: inactive
--
molecule: CC(C)CC(=O)OC[n+]1ccc(-c2c(COC(=O)NC(C)C)c(COC(=O)NC(C)C)c3n2CCC3)cc1
assigned.class: inactive
--
molecule: CC(=O)NNc1nc(-c2ccc([N+](=O)[O-])cc2)c(C#N)c(=O)n1C
assigned.class: inactive
--
molecule: COC(=O)C1=Nc2c(C)nn(-c3ccccc3)c2N=C(c2ccc(C)cc2)C1
assigned.class: inactive
--
molecule: Nc1nc(-c2ccccc2)cc(-c2cc(Cl)ccc2O)n1
assigned.class: inactive
--
molecule: COc1cc(-c2c3c(cc4c2OCO4)[C@@H](Nc2ccc(-c4ccc(-c5ccc(N[C@@H]6c7cc8c(cc7C(c7cc(OC)c(O)c(OC)c7)[C@H]7C(=O)OC[C@H]67)OCO8)cc5)cc4)cc2)[C@H]2COC(=O)[C@@H]2C3)cc(OC)c1O (stereo partly drawn)
assigned.class: inactive
--
molecule: OC(c1cc(-c2ccccc2)nc2c1ccc1ccccc12)C1CCCCN1 (stereo not drawn)
assigned.class: inactive
--
molecule: O=C(c1ccccn1)c1nnn2ccccc12
assigned.class: inactive
--
molecule: C[P+]1(Cc2ccccc2)CCCC1
assigned.class: inactive
--
molecule: NC(=O)/N=C1\NCCC(=O)N1CCc1c[nH]c2ccccc12
assigned.class: inactive
--
molecule: C=C1CC2CC(=O)C(O)C(C1)C2 (stereo not drawn)
assigned.class: inactive
--
molecule: CNC(=O)OC1/C(C)=C\C(C)C(O)C(OC)CC(C)CC2=C(OC)C(=O)C=C(C2=O)N(C)C(=O)/C(C)=C/C=C\C1OC (stereo not drawn)
assigned.class: inactive
--
molecule: COc1cccc(NC(=O)C(C)(C)C)c1SSc1c(NC(=O)C(C)(C)C)cccc1OC
assigned.class: inactive
--
molecule: S=c1nc(Nc2ccccc2)c2c3c(sc2[nH]1)CCCC3
assigned.class: inactive
--
molecule: COc1cc(OC)c(OC)cc1/C=C/c1cnnc2ccccc12
assigned.class: inactive
--
molecule: CC12OC3(C(O)C1O)C(C(=O)O[C@H]3CO[Si](C)(C)C(C)(C)C)C2S(=O)(=O)c1ccccc1 (stereo partly drawn)
assigned.class: inactive
--
molecule: c1ccc2c(NCCCCCCCCNc3c4ccccc4nc4ccccc34)c3ccccc3nc2c1
assigned.class: active
--
molecule: CCCC[C@H]1[C@@H](OCOc2ccccc2)COC(=O)N1[C@H](C)c1ccccc1
assigned.class: inactive
--
molecule: COc1cc2c3c(c1OC)-c1c(ccc4c1OCO4)CC3(C#N)N(C(=O)c1ccccc1)CC2 (stereo not drawn)
assigned.class: inactive
--
molecule: CC(C(=O)Oc1ccc2ccccc2c1-c1c(O)ccc2ccccc12)c1ccccc1 (stereo not drawn)
assigned.class: inactive
--
molecule: CC1OC(OC2C(OC(=O)[C@]34CCC(C)(C)CC3C3=CCC5[C@@]6(C)C[C@H](O)[C@H](OC7OC(CO)C(O)C(O)C7N)[C@@](C)(C(=O)O)C6CC[C@@]5(C)C3(C)CC4)OCC(O)C2O)C(O)C(O)C1OC1OCC(O)C(O)C1O (stereo partly drawn)
assigned.class: inactive
--
molecule: CC12CCC(C(Br)(Br)C1=O)C2(C)C (stereo not drawn)
assigned.class: active
--
molecule: CCCCCCCCCCCC[C@@H](O)[C@H]1CCC([C@H](O)CCCCC(=O)CCCCCCCC2=C[C@H](C)OC2=O)O1 (stereo partly drawn)
assigned.class: inactive
--
molecule: CC(=O)OCC1OC(N2C(=O)/C(=N\NC(N)=S)c3ccc([N+](=O)[O-])cc32)C(OC(C)=O)C1OC(C)=O (stereo not drawn)
assigned.class: inactive
--
molecule: Clc1nss/c1=N/c1nonc1-c1ccccc1
assigned.class: inactive
--
molecule: C[C@]12CC[C@@H]3c4ccc(O)cc4CC[C@H]3[C@@H]1C/C(=C\c1ccncc1)[C@@H]2O
assigned.class: inactive

Taken from ChEMBL document CHEMBL1201862.
